Hello, the source for this data is PubChem BioAssay (NCATS), in case you need it.

molecular target: ATP-dependent DNA helicase Q1 (Homo sapiens) (UniProt P46063); assay: qHTS Validation Assay for Inhibitors of RecQ-Like Dna Helicase 1 (RECQ1) (AID 2353); conditions: recombinant RECQ1 helicase DNA unwinding assay; series mostly up to 25.6 µM
Sequence (P46063 whole entry, looked up): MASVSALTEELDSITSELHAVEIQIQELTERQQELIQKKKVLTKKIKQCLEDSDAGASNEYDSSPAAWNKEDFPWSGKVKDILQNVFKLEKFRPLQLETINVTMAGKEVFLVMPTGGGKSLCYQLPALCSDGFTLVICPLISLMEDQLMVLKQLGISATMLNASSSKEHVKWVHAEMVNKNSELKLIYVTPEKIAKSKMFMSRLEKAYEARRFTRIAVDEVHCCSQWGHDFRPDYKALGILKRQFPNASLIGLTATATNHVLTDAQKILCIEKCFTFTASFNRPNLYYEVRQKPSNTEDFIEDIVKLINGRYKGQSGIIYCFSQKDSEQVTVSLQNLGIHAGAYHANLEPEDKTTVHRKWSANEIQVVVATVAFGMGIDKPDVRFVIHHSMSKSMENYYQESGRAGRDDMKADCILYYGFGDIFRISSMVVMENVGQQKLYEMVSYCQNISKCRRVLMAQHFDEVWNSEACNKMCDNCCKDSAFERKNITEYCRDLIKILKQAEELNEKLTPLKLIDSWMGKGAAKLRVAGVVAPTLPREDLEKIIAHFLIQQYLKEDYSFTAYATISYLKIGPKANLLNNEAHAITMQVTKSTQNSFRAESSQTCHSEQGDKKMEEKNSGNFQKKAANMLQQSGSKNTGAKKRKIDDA
Activity calls are given as the source filed them. Calls follow the shape of the dose curve; as a rule, active = well fitted inhibition curve with a large enough effect; inconclusive = small, poorly fitted or top-dose-only effect; inactive = flat fitted curve, though single readings scatter.
Use one of these outcomes when replying: active, inactive

Answered cases to consult:
Q: How did this test come out for O=C(O)CCCc1ccc(N(CCCl)CCCl)cc1 ?
Result: inactive

Q: Can you look up the reported call for CC(C)N(CCC(C(N)=O)(c1ccccc1)c1ccccn1)C(C)C (stereo unspecified) for me?
Result: inactive

Q: I'd appreciate the recorded outcome for O=c1[nH]oc2c1CCNC2 from this test.
Result: inactive

Q: Per the records of this test, what outcome belongs to C[C@]12CCC(=O)C=C1CC[C@@H]1[C@@H]2CC[C@]2(C)C(=O)CC[C@@H]12 ?
Result: inactive

Q: Which outcome was assigned to C=C(C)[C@H]1CN[C@H](C(=O)O)[C@H]1CC(=O)O in this test?
Result: inactive

New cases:
Q: So what was the verdict on CCCCC/C=C\C/C=C\C/C=C\C/C=C\CCCC(=O)NCC(=O)O in this test?
Result: active
